Biological target: uOR (Mus musculus, UniProt P42866)
Sequence (P42866 whole entry): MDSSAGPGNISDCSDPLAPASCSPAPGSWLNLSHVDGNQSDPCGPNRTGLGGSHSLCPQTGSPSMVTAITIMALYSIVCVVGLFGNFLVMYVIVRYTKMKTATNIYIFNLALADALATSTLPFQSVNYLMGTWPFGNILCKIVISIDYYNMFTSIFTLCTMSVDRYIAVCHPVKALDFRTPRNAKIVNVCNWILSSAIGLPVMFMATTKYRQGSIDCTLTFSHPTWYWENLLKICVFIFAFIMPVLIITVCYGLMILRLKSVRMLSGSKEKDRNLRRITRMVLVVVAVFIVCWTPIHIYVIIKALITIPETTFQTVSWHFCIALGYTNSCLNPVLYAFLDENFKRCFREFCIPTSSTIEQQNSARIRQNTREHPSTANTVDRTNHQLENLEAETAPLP
Assay: Agonist induced ERK 1/2 phosphorylation (efficacy and potency relative to DAMGO)
METRIC_NAME: EC50 (µM)

INSERT INTO results (molecular_string, metric_name, reported_result) VALUES
  ('CCc1ncc(NC(=O)O[C@H]2C[C@@H](C(=O)OC)[C@]3(C)CC[C@H]4C(=O)O[C@H](c5ccoc5)C[C@]4(C)[C@H]3C2=O)cn1', 'EC50', 7.46),
  ('COC(=O)[C@@H]1C[C@H](OC(=O)Nc2ccc(Cl)cc2)C(=O)[C@H]2[C@@]1(C)CC[C@H]1C(=O)O[C@H](c3ccoc3)C[C@]21C', 'EC50', 0.146),
  ('COC(=O)[C@@H]1C[C@H](OC(=O)c2nc(C)co2)C(=O)[C@H]2[C@@]1(C)CC[C@H]1C(=O)O[C@H](c3ccoc3)C[C@]21C', 'EC50', 5.99);
